- measurement-notes: qHTS for compounds that reverse cellular toxicity of Amyloid beta (A-beta) peptide in yeast: LOPAC Validation Assay (AID 720559);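 also: plate controls were DMSO for no effect and equimolar ferric chloride plus clioquinol rescue for full effect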
- experimental-conditions: yeast expressing A-beta; series mostly up to 46.1 µM
The source made the active and inactive calls. Calls follow the shape of the dose curve; as a rule, active = well fitted curve in the direction sought with a large enough effect; inconclusive = small, poorly fitted or top-dose-only effect, or another doubt; inactive = no such curve, though single readings can be large or run the other way.
readout-name: outcome

Here's what some known entries look like.
CC(=O)[C@H]1CCC2C3CC[C@H]4C[C@H](O)CC[C@]4(C)C3CC[C@@]21C (stereo partly specified)	inactive
C[C@@H](N)Cc1cnc[nH]1	inactive
c1ccc(C2(c3ccccc3)CC2C2=NCCN2)cc1 (stereo unspecified)	inactive
CC(C)Oc1cccnc1N(C)C1CCN(Cc2ccccc2)CC1	inactive
CS(=N)(=O)CC[C@H](N)C(=O)O (stereo partly specified)	inactive

For the next question, use this compound.
outcome recorded for this compound, O=C(N[C@H]1CN2CCC1CC2)c1ccc(Cl)cc1 , is inactive

====

- measurement-notes: qHTS for identification of novel therapeutic agents for treatment of microphthalmiaassociated transcription factor (MiT) renal cell carcinoma (RCC) (AID 1963991);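 also: curves scaled with 100% = DMSO viability and 0% = empty wells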
- experimental-conditions: TFE3-RCC UOK109 viability, CellTiter-Glo, 48 h; measured here: UOK109 Z-AUC; stronger effect = lower value
Inconclusive results are not listed.
readout-name: z-score
Please reply with the value in numeric form only.

COc1ccc2c(c1)[C@]13CCCCC1C(C2)N(C)CC3 (stereo partly specified)	-0.129

z-score recorded for this compound, COc1cc([C@@H]2c3cc4c(cc3[C@@H](O)C3COC(=O)C32)OCO4)cc(OC)c1O (stereo partly specified) , is -1.65

z-score recorded for this compound, CCN1C[C@]2(OC(=O)c3ccccc3NC(C)=O)CC[C@H](OC)[C@@]34[C@H]5CC6[C@@H](OC)C[C@](O)(C(C[C@@H]23)[C@@H]14)[C@@]5(O)[C@@H]6OC , is 0.543

z-score recorded for this compound, C[C@H]([C@H](O)CCC(C)(C)O)[C@H]1CC[C@@]2(O)C3=CC(=O)[C@@H]4C[C@@H](O)[C@@H](O)C[C@]4(C)[C@@H]3CC[C@]12C , is 0.847

z-score recorded for this compound, COC1=CC(C)=C[C@@H](C)[C@@H](O)[C@@H](C)CC(C)=CC=C[C@H](OC)[C@H]([C@@H](C)[C@@H](O)[C@H](C)[C@@]2(O)C[C@@H](O)[C@H](C)[C@@H](C(C)C)O2)OC1=O , is -1.69

z-score recorded for this compound, CC1=NN=C(c2ccc(N)cc2)c2cc3c(cc2C1)OCO3 , is 0.644

z-score recorded for this compound, CCOC(=O)c1cncn1[C@H](C)c1ccccc1 , is 1.85

z-score recorded for this compound, C[C@@H]1O[C@@H](O[C@@H]2C=C3CC[C@@H]4[C@@H](CC[C@]5(C)[C@H](c6ccc(=O)oc6)CC[C@@]45O)[C@@]3(C)CC2)[C@H](O)[C@H](O)[C@H]1O , is -3.96

z-score recorded for this compound, C[C@@]12OC(=O)[C@]1([C@@H](O)[C@@H]1C=CCCC1)NC(=O)[C@H]2CCCl , is -1.51

z-score recorded for this compound, COc1cc2cc(c1Cl)N(C)C(=O)C[C@H](OC(=O)C(C)C)[C@]1(C)O[C@H]1[C@H](C)[C@@H]1C[C@@](O)(NC(=O)O1)[C@H](OC)C=CC=C(C)C2 , is -2.37

z-score recorded for this compound, CCCC[N+]1(C)[C@H]2CC(OC(=O)[C@H](CO)c3ccccc3)C[C@H]1[C@H]1O[C@H]12 (stereo partly specified) , is 0.529

z-score recorded for this compound, CC1=C(O)C(=O)C=C2C1=CC=C1[C@@]2(C)CC[C@@]2(C)[C@@H]3C[C@](C)(C(=O)O)CC[C@]3(C)CC[C@]12C , is -1.17

z-score recorded for this compound, C[C@H]1CCCC=CC2C[C@H](O)C[C@@H]2[C@H](O)C=CC(=O)O1 (stereo partly specified) , is -3.99

====

- System: MKL-2
- measurement-notes: qHTS assay to identify novel small-molecules to repurpose for Merkel cell carcinoma treatment (AID 1296009); also: nearly all actives have a fitted effect of over 60% in size
- experimental-conditions: MCC and control cell lines, CellTiter-Glo viability, 72 h; series mostly up to 46 µM
Results filed as inconclusive are left out. Calls of active or inactive are those of the source. Calls come from the whole dose curve; as a rule, active = well fitted inhibition curve with a large enough effect; inconclusive = small, poorly fitted or top-dose-only effect; inactive = flat fitted curve, though single readings scatter.
readout-name: outcome

Here's what some known entries look like.
ClC1=C(Cl)[C@]2(Cl)[C@@H]3[C@@H]4C[C@@H]([C@H]5O[C@@H]45)[C@@H]3[C@@]1(Cl)C2(Cl)Cl	inactive
O=C1CCC[C@@H]2[C@H]3CCCN4CCC[C@@H](CN12)[C@@H]34	inactive
CC(C)(C)NC[C@H](O)c1ccc(O)cc1Cl	inactive
Oc1ccc2c3c1O[C@H]1c4[nH]c5c(c4C[C@@]4(O)[C@@H](C2)N(CC2CC2)CC[C@]314)C[C@@]1(O)[C@H]2Cc3ccc(O)c4c3[C@@]1(CCN2CC1CC1)[C@H]5O4	inactive

For the next question, use this molecule.
outcome recorded for this molecule, OCCCBr , is inactive

====

- Tested on: OV90
- measurement-notes: Primary qHTS to identify gynecologic anti-cancer compounds using libraries of approved drugs and bioactive compounds (AID 1345084); also: nearly all actives have a fitted effect of over 55% in size; also: potency is read from the fitted curve at half-maximal effect
- experimental-conditions: Gynecologic cancer cell panel viability, ATPlite luminescence, 48 h; series mostly up to 57.5 µM
Inconclusive results are not listed. Calls of active or inactive are those of the source. Calls follow the shape of the dose curve; as a rule, active = well fitted cell-killing curve with a large enough effect; inconclusive = small, poorly fitted or top-dose-only effect, or effect the other way; inactive = flat fitted curve, though single readings scatter.
readout-name: Potency

Cc1c(C(=O)Nc2cccc(C(F)(F)F)c2)cc(-c2ccccc2)n1CCCN1CCOCC1	inactive
S=C(SSC(=S)N1CCCCC1)N1CCCCC1	10 µM (active)
COC1=C[C@@H]2[C@@H]3Cc4ccc(OC)c(O)c4[C@]2(CCN3C)CC1=O	inactive
CC[N+]1(CCOC(=O)C(O)(c2ccccc2)c2ccccc2)CCCCC1	inactive
O=c1[nH]c2ccc(Cl)cc2c(N[C@@H]2CN3CCC2CC3)c1-c1nc2ccccc2[nH]1	5.01 µM (active)

Potency recorded for this molecule, c1cc2ccc3cccc4ccc(c1)c2c34 , is inactive

Potency recorded for this molecule, Cc1ccc(Cl)c(O)c1 , is inactive

Potency recorded for this molecule, CC1=C(C(=O)O)N2C(=O)[C@@H](N)[C@H]2SC1 , is inactive

====

- target: D(1A) dopamine receptor (Homo sapiens)
- measurement-notes: HTS Assay for Allosteric Agonists of the Human D1 Dopamine Receptor: Primary Screen for Antagonists (AID 488983);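 also: calcium flux response to an EC80 dopamine challenge measured with no-wash dye; nearly all actives have a fitted effect of over 65% in size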
- experimental-conditions: D1 receptor cell assay, antagonist mode, qHTS titration; series mostly up to 41.8 µM
Records with an inconclusive call do not appear. Calls of active or inactive are those of the source. The call rests on the fitted dose curve; in most records, active means well fitted inhibition curve with a large enough effect; inconclusive means small, poorly fitted or top-dose-only effect, or effect the other way; inactive means flat fitted curve, though single readings scatter.
Give your call using only these classes: True = active, False = inactive

O=C1CCCN1CC#CCN1CCCC1	False
NC(CP(=O)(O)O)C(=O)O (configuration not stated)	False

Just curious, what result did CC(=O)[C@H]1CCC2C3CC[C@H]4C[C@H](O)CC[C@]4(C)C3CC[C@@]21C (some centres not stated) get here?
False

Just curious, what result did CCCCc1ccc(C(=O)O)nc1 get here?
False

Just curious, what result did COc1ccc2c(c[n+](C)c3c4cc5c(cc4ccc23)OCO5)c1OC get here?
False

Just curious, what result did CNCCc1ccc(O)c(O)c1 get here?
True

Just curious, what result did C[C@]12N[C@H](Cc3ccccc31)c1ccccc12 get here?
False

====

- measurement-notes: Quantitative High-Throughput drug screen in 47 multiple myeloma cell lines against the NCATS MIPE library collection: JIM3_ECACC cell viability assay (AID 1918963; also: nearly all actives have a fitted effect of over 35% in size; also: potency is read from the fitted curve at half-maximal effect)
- experimental-conditions: JIM3 myeloma viability, CellTiter-Glo ATP, 48 h; series mostly up to 45.8 µM
Records with an inconclusive call do not appear. The source made the active and inactive calls. Calls follow the shape of the dose curve; as a rule, active = well fitted cell-killing curve with a large enough effect; inconclusive = small, poorly fitted or top-dose-only effect; inactive = no such curve, though single readings can be large or run the other way.
readout-name: Potency

O=C(Oc1ccc([N+](=O)[O-])cc1)N1CCN(Cc2cccc(Oc3ccccc3)c2)CC1	inactive
COC1=CC(C)=C[C@@H](C)[C@@H](O)[C@@H](C)CC(C)=CC=C[C@H](OC)[C@H]([C@@H](C)[C@@H](O)[C@H](C)[C@@]2(O)C[C@@H](O)[C@H](C)[C@@H](C(C)C)O2)OC1=O	5.3 nM (active)
C=CCON=C(C[C@H]1O[C@@H]2O[C@]3(C)CC[C@@H]4[C@H](C)CC[C@@H]([C@H]1C)[C@@]24OO3)[C@H]1O[C@@H]2O[C@]3(C)CC[C@H]4[C@H](C)CC[C@@H]([C@@H]1C)[C@@]24OO3	372 nM (active)
CN(C)NC(=O)CCC(=O)O	inactive

====

- Tested on: ICS
- measurement-notes: qHTS profiling for inhibitors of Plasmodium falciparum proliferation (AID 504749); also: nearly all actives have a fitted effect of over 60% in size
- experimental-conditions: P. falciparum in erythrocytes, SYBR Green DNA, 72 h; series mostly up to 28.7 µM
Inconclusive results are not listed. The source made the active and inactive calls. Calls come from the whole dose curve; as a rule, active = well fitted inhibition curve with a large enough effect; inconclusive = small, poorly fitted or top-dose-only effect; inactive = flat fitted curve, though single readings scatter.
Give your call using only these classes: 1 (active), 0 (inactive)

CCCCc1ccc(C(=O)O)nc1	0
CC(C)NC(C)Cc1ccc(I)cc1 (stereo unspecified)	0
NC1=NC(=O)N2CC12 (stereo unspecified)	1
CC[N+]1(CCOC(=O)C(O)(c2ccccc2)c2ccccc2)CCCCC1	0
COC(=O)[C@@H](N)CCCN=C(N)N[N+](=O)[O-]	0
O=C(O)COc1ccccc1	0
Cc1ccc(Cl)c(O)c1	0
C[C@]12CCC(=O)C(O)=C1CC[C@@H]1[C@H]3CCC(=O)[C@@]3(C)CC[C@@H]12	0
C#CC1(O)CCC2C3CCC4=CC(=O)CCC4(C)C3CCC21C (stereo unspecified)	0
O=[N+]([O-])c1ccc([As](=O)(O)O)cc1	1

Just curious, what result did CN[C@@H]1C[C@@H](c2ccc(Cl)c(Cl)c2)c2ccccc21 get here?
1
